Where these numbers come from: the supplement of paper PMC8728848

- Assay system: Neu5Ac(a2-6)Gal(b1-4)GlcNAc(b1-2)Man(a1-3)[GlcNAc(b1-4)][Neu5Ac(a2-6)Gal(b1-4)GlcNAc(b1-2)Man(a1-6)]Man(b1-4)GlcNAc(b1-4)GlcNAc
- Assay notes: glycan array binding signal (z-score within array); higher = stronger binding
- Applied conditions: glycan notation: IUPAC condensed, linker removed
The sample as a whole holds a higher share of the strongest signals than the screen did.
Measured quantity: glycan array binding signal (z-score)

binder="LlpA1 (Pseudomonas fluorescens), Q4KHC3 (protein) MGSSHHHHHHSSGLVPRGSHMAWIRYDFTDNGSSVLPARYYMAPNQYLQSPNKRFKLLFQADGNLALYDGAQLAWVADQNTPFTNVSKGNKKDPMMVFMNYGFVLDDPLRGRIWSTTPSDPTMGSREDASLRAFTQVQDDGNIVTVDTIPHWYAPNGRVFTPAVGAAMIIGGTTELVPGQFYSAGEHSLVFQGDGNLVVYGPNSSVIWATYTQNKGGVRCVMQEDGNLVIYAANNGVVWQSGTGGHPGATIRLQANGSFTIVTERPVWARFGYTPTIKPPRVFYPDHKWKTGSYTWNNVF" test_result=-0.209
